target_of_assay: Muscarinic acetylcholine receptor
assay_method_text: Inhibition of binding of radioactive N-propylbenzilycholine mustard ([3H]-PrBCM) to rat brain membranes
Type: cell membranes, Membrane
measurement_type: IC50 (µM)

C=C(Br)COc1noc2c1CNCC2.Cl    13

I = CC#CCOc1noc2c1CNCC2.Cl
II = CCCCOc1noc2c1CNCC2.Cl
Task: Kindly identify the item with the lower IC50 figure among these two: I and II Respond using the label that marks the chosen record.
Result: I
(I: 5.2 µM, II: 15 µM)

###

assay_method_text: pKa value is determined
Format: physicochemical
measurement_type: pKa

COc1noc2c1CNCC2.Cl    7.5
CCOc1noc2c1CNCC2.Cl    7.6

###

target_of_assay: Muscarinic acetylcholine receptor
assay_method_text: In vitro antagonistic activity against peripheral Muscarinic acetylcholine receptor in guinea pig ileum as inhibition of acetylcholine induced muscle contraction
Format: functional, tissue-based
Parameter: IC50. Scope: all listed entries.

Here are 2 compounds together with their reported answers.
CCCCOc1noc2c1CNCC2.Cl    > 50 µM
C/C=C/COc1noc2c1CNCC2.Cl    > 50 µM

// moving on: another record for IC50
# IC50 (compound: COc1noc2c1CN(Cc1ccccc1)CC2.Cl ) is > 50 µM

###

target_of_assay: Muscarinic acetylcholine receptor
assay_method_text: Inhibition of binding of radioactive N-propylbenzilycholine mustard ([3H]-PrBCM) to rat brain membranes
Format: cell membranes, Membrane
measurement_type: IC50 (µM)

Here are 8 molecules together with their reported answers.
CCN1CCc2onc(OC)c2C1.Cl    15
COc1noc2c1CN(C)CC2.Cl    27
COc1noc2c1CNCC2.Cl    45
COC(=O)C1=CCCNC1 [NORARECOLINE]    30
CCOc1noc2c1CNCC2.Cl    6
C/C=C/COc1noc2c1CNCC2.Cl    14
C#CCOc1noc2c1CNCC2.Cl    5.8
C=CCOc1noc2c1CNCC2.Cl    9.6

I = Cl.c1ccc(COc2noc3c2CNCC3)cc1
II = CCOc1noc2c1CN(C)CC2.Cl
III = CCCOc1noc2c1CNCC2.Cl
Task: I would appreciate it if you could sort these 3 molecules by IC50, starting from the smallest number. Put the labels in the order asked and list them.
Result: II, III, I

###

Parameter: IC50. Scope: all listed entries.
target_of_assay: Muscarinic acetylcholine receptor
assay_method_text: Inhibition of binding of radioactive N-propylbenzilycholine mustard ([3H]-PrBCM) to rat brain membranes
Assay type: cell membranes, Membrane

Here are 2 compounds together with their reported answers.
CC(C)COc1noc2c1CNCC2.Cl    > 50 µM
CC(C)Oc1noc2c1CNCC2.Cl    3.5 µM

// moving on: another record for IC50
# IC50 (compound: COc1noc2c1CN(Cc1ccccc1)CC2.Cl ) is > 50 µM

The measurements presented in this section are drawn from ChEMBL document CHEMBL1123456.
